Target under test: T1, PPARα-ligand binding domain (amino acids 196–468) (human, UniProt Q07869 196-468, biotinylated for biolayer interferometry; 15N-labeled for NMR)
T1 construct: The His tag is used for capture in the pulldown; also called PPARα-LBD; wild-type PPARα; source: E. coli BL21 (DE3)-CodonPlus, purified; not shown: His6, N-terminal, kept
T1 sequence (looked up): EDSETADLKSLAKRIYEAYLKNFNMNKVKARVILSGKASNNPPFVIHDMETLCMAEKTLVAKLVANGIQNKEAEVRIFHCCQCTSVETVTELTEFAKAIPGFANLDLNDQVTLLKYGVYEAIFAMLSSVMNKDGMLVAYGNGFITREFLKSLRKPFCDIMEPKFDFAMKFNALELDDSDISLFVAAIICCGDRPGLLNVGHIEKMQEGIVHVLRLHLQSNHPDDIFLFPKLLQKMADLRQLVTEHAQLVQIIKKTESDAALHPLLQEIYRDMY
Test: BLI; Octet Red 96; 50 μg/ml biotinylated PPARα-LBD or PPARγ-LBD (or their mutants) immobilised on streptavidin biosensors; analyte β-arrestin-1, βarr1M or peptides in solution (single 2 μM or serial dilutions, β-arrestin-1 0.5–32 μM); 25 °C; 2:1 heterogeneous ligand model and steady-state analysis
Condition summary: both partners purified
Test readout: Kd

binder="PAPEDKKPLTRLQERLIKKLG [synthetic β-arrestin-1 peptide harboring the LQERLIKKL sequence]" test_readout=Kd val="56 µM"
